test: Solubility of the compound in buffer at pH 7; assay type: physicochemical
assayEndpoint: solubility (µg/mL)

O=C(O)Cn1c2c(c3ccccc31)CN(C(=O)c1ccccc1)CC2; 810
N#C/C(=C\c1cn(CC(=O)O)c2ccccc12)C(=O)N1CCCc2ccccc21; 670

====

experiment: Solubility of the compound in buffer at pH 4; format: physicochemical
assayEndpoint: solubility (µg/mL)

I. N#C/C(=C\c1cn(CC(=O)O)c2ccccc12)C(=O)N1CCCc2ccccc21
II. O=C(O)Cn1c2c(c3ccccc31)CN(C(=O)c1ccccc1)CC2
[Q] Kindly identify which of I and II has the larger recorded solubility value. To answer, give the label that identifies your chosen option.
[A] II
(II: 515 µg/mL, I: 7 µg/mL)

====

test: Volume of distribution at steady state in Wistar rat at 10 mg/kg, po and 1 mg/kg, iv; format: ADME, organism-based; settings: in vivo, read-out: Vdss
assayEndpoint: Vd (L/kg)

O=C(O)Cn1c2c(c3ccccc31)CN(C(=O)c1ccccc1)CC2; 0.5
N#C/C(=C\c1cn(CC(=O)O)c2ccccc12)C(=O)N1CCCc2ccccc21; 0.7

====

biological target: Cytochrome P450 3A4 (Homo sapiens, UniProt P08684)
Sequence (P08684 whole entry): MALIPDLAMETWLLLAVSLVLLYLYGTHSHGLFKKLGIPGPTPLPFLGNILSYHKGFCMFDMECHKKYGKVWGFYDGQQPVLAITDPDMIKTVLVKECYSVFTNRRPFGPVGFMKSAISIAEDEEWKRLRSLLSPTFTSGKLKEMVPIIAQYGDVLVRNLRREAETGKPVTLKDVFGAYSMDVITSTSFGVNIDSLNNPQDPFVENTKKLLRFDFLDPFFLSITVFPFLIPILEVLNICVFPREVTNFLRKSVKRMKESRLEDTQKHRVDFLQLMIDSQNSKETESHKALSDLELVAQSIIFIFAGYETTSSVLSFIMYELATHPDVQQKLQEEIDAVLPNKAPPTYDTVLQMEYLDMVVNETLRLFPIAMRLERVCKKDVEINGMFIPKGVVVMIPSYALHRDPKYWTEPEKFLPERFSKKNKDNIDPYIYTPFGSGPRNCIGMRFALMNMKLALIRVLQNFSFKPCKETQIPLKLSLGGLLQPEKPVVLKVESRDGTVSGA
assayEndpoint: IC50

[Q] API: value(readout= IC50, system= Cytochrome P450 3A4 (Homo sapiens, UniProt P08684), query= O=C(O)Cn1c2c(c3ccccc31)CN(C(=O)c1ccccc1)CC2 )
[A] > 50 µM

====

experiment: Stability in simulated intestinal fluid after 4 hrs by LC/MS analysis; format: physicochemical; settings: read-out: Stability
assayEndpoint: remaining at 4 h (%)

1. N#C/C(=C\c1cn(CC(=O)O)c2ccccc12)C(=O)N1CCCc2ccccc21
2. O=C(O)Cn1c2c(c3ccccc31)CN(C(=O)c1ccccc1)CC2
[Q] Sorting ascending by remaining at 4 h, which comes first: 1 or 2 ? Give the label of your selection.
[A] 1

====

Target: Prostaglandin D2 receptor 2 (Homo sapiens)
Sequence (Q9Y5Y4 whole entry): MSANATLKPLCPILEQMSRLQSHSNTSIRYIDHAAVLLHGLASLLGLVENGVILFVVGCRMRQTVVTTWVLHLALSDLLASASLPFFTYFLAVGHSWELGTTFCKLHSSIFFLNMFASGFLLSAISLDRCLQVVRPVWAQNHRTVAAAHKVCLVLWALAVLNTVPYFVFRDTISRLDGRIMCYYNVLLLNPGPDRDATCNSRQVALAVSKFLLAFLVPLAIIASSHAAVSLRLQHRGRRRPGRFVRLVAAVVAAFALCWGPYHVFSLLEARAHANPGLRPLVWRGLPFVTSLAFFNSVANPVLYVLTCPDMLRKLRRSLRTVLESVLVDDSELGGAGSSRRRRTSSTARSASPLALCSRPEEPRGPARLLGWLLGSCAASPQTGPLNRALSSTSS
Experiment: Displacement of [3H]PGD2 from human CRTh2 receptor in presence of human serum albumin
assayEndpoint: IC50 (nM)

A. O=C(O)Cn1c2c(c3ccccc31)CN(C(=O)c1ccccc1)CC2
B. N#C/C(=C\c1cn(CC(=O)O)c2ccccc12)C(=O)N1CCCc2ccccc21
[Q] Thinking about recorded IC50 values, which is higher, A or B ? Mark your answer with the label of the selected entry.
[A] A

====

Target: Prostaglandin E2 receptor EP3 subtype (Homo sapiens, UniProt P43115)
Sequence (P43115 whole entry): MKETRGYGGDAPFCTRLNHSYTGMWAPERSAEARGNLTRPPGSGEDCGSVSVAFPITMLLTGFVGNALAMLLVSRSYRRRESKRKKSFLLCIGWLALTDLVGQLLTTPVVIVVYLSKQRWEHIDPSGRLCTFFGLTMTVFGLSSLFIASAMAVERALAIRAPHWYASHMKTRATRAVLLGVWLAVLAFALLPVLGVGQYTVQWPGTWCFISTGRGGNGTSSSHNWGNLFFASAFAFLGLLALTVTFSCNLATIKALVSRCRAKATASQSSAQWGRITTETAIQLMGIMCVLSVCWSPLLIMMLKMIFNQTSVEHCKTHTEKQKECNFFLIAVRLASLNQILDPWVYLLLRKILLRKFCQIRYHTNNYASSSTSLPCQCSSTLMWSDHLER
Assay: Antagonist activity at human EP3 receptor assessed as inhibition of PGE2-induced Ca2+ mobilization by FLIPR assay
assayEndpoint: IC50

O=C(O)Cn1c2c(c3ccccc31)CN(C(=O)c1ccccc1)CC2; > 10 µM

# next molecule below
[Q] So what does the record say about IC50 for N#C/C(=C\c1cn(CC(=O)O)c2ccccc12)C(=O)N1CCCc2ccccc21 ?
[A] > 10 µM
